Test system: NCI-H23 lung
assay-summary: NCI-60 one-dose screen, 48 h (100 = growth as untreated, 0 = no growth, -100 = all killed)
condition-context: 10 µM unless noted
About 83,000 compounds went through this panel and 20% of them were active in at least one assay; those are over-represented in the sample as a whole.
Each entry gets rule not met if its growth stays under 10%, and rule met if its growth is 10% or above.

Answered examples (3):
O=C(NOC[C@H](O)CO)c1ccc(F)c(F)c1Nc1ccc(I)cc1F: rule met
CC(=O)c1c(C)c2cnc(Nc3ccc(N4CCNCC4)cn3)nc2n(C2CCCC2)c1=O: rule met
CC(C)(C)OC(=O)N1CCC(O)[C@@H](O[Si](c2ccccc2)(c2ccccc2)C(C)(C)C)[C@H]1/C=C/c1ccccc1 (some centres undefined): rule met

Enquiry: # check: growth of `COc1ccc(Cl)c(Nc2nc3ccccc3nc2NS(=O)(=O)c2cccc(NC(=O)C(C)(C)N)c2)c1` is greater than or equal to 10%
Return: rule met

Enquiry: # check: growth of `Cc1cc2c(-c3nc4ccccn4c3N)c(O)c(O)cc2c(O)c1-c1c(C)cc2c(-c3nc4ccccn4c3N)c(O)c(O)cc2c1O` is greater than or equal to 10%
Return: rule not met

Enquiry: # check: growth of `O=S1(=O)OC(c2cc(Cl)c(O)c(Br)c2)(c2cc(Cl)c(O)c(Br)c2)c2ccccc21` is greater than or equal to 10%
Return: rule met

Enquiry: # check: growth of `CNC(=O)c1cc(COc2nnc(Nc3ccc(Cl)cc3)c3ccoc23)ccn1` is greater than or equal to 10%
Return: rule met

Enquiry: # check: growth of `Cn1cnc2c(F)c(Nc3ccc(Br)cc3F)c(C(=O)NOCCO)cc21` is greater than or equal to 10%
Return: rule met

Enquiry: # check: growth of `CCCS(=O)(=O)Nc1ccc(F)c(C(=O)c2c[nH]c3ncc(-c4ccc(Cl)cc4)cc23)c1F` is greater than or equal to 10%
Return: rule met

Enquiry: # check: growth of `COc1cc(Nc2ncc3c(n2)-c2ccc(Cl)cc2C(c2c(F)cccc2OC)=NC3)ccc1C(=O)O` is greater than or equal to 10%
Return: rule met

Enquiry: # check: growth of `CNC(=O)c1cc(Oc2ccc(NC(=O)Nc3cc(C(C)(C)C)nn3-c3ccc4ncccc4c3)c(F)c2)ccn1` is greater than or equal to 10%
Return: rule not met

Enquiry: # check: growth of `Clc1nc(Cl)c2ncn(C/C=C\Cn3cnc4c(Cl)nc(Cl)nc43)c2n1` is greater than or equal to 10%
Return: rule not met

Enquiry: # check: growth of CC(=Nc1ccccc1)C1=C(O)C(Cc2ccc(O)cc2)NC1=O (centres undefined) is greater than or equal to 10%
Return: rule not met

Enquiry: # check: growth of `NC[C@@](O)(c1ccc(Cl)cc1)c1ccc(-c2cn[nH]c2)cc1` is greater than or equal to 10%
Return: rule met

Enquiry: # check: growth of `CC(=O)Oc1ccccc1C(=O)N=C1[Se]CCN1C(=O)c1ccccc1OC(C)=O` is greater than or equal to 10%
Return: rule not met

Enquiry: # check: growth of `C=CC(=O)Nc1cc2c(Nc3ccc(F)c(Cl)c3)ncnc2cc1OCCCN1CCOCC1` is greater than or equal to 10%
Return: rule not met

Enquiry: # check: growth of `COC(=O)[C@]12CC[C@@H](C)[C@H](C)[C@@H]1C1=CC[C@@H]3[C@@]4(C)C(C=O)=C[C@@](C)(COS(C)(=O)=O)C4=CC[C@@]3(C)[C@]1(C)CC2` is greater than or equal to 10%
Return: rule not met

Enquiry: # check: growth of `Cc1sc2c(c1C)c(=O)nc1c(-c3nc(-c4ccccc4)cs3)n[nH]n12` is greater than or equal to 10%
Return: rule met

Enquiry: # check: growth of `Nc1c2c(c(O)c3c1=C(CO)C=N3)=NCCS2` is greater than or equal to 10%
Return: rule not met

Enquiry: # check: growth of `N#Cc1c(NC(=O)c2ccco2)[n+]([O-])c2cc(F)c(F)cc2[n+]1[O-]` is greater than or equal to 10%
Return: rule met

Enquiry: # check: growth of `CN1CC[C@@H](c2c(O)cc(O)c3c(=O)cc(-c4ccccc4Cl)oc23)[C@@H]1CO` is greater than or equal to 10%
Return: rule not met
